Some molecules, each annotated with its measured TGI.
Tested on: SK-MEL-2 melanoma
Assay: NCI tumour cell line growth inhibition, 48 h

Sample answers from the record:
molecule	tested.on	TGI
COc1cc(/C=c2\sc3n(c2=O)C(c2ccc(Cl)cc2)C2=C(CCCC2C)N=3)cc(OC)c1OC (stereo unspecified)	SK-MEL-2 melanoma	> 100 µM
N#CC1CC2(CCN1C(=O)c1ccccc1)OCCO2 (stereo unspecified)	SK-MEL-2 melanoma	> 100 µM
C[N+]1=C(/C=C\C=C\c2ccccc2)C(C)(C)c2ccccc21	SK-MEL-2 melanoma	4.31 µM
COc1ccccc1NC(=O)CC(=O)N/N=C/c1ccc(N(CCC#N)S(=O)(=O)c2ccccc2)cc1	SK-MEL-2 melanoma	> 100 µM
COc1ccc2c(c1)CCc1c-2n(CCN2CCCCC2)c2ccc(OC)cc12	SK-MEL-2 melanoma	> 100 µM

Tell me reported TGI for CC(C)(c1ccccc1)c1ccc(OC#N)cc1 , tested with SK-MEL-2 melanoma.
> 100 µM

Would you mind doing CC(C(O)c1ccccc1)C(O)(C(F)(F)F)C(F)(F)F (stereo unspecified) as well?
> 100 µM

Would you mind doing CC(C)NC(=O)CN1CCN(c2c(O)c3c(c(O)c2Cl)C(=O)C=CC3=O)CC1 as well?
3.1 µM

Would you mind doing CC1(C)C2C=CC1C(=O)CC2 (stereo unspecified) as well?
> 100 µM

Would you mind doing COc1ccc(C(=O)/C=C/c2cc(O)c(O)c(F)c2F)c(OC)c1 as well?
33.6 µM

Would you mind doing CCOC(=O)c1[nH]c(COC(C)=O)c2c1CCCCCCCCCC2 as well?
> 100 µM

----------
Some molecules, each annotated with its measured TGI.
System: M14 melanoma
Experiment: NCI tumour cell line growth inhibition, 48 h

Which TGI value is on record for O=C1c2ccccc2-c2c1c1ccccc1c(=O)n2CCCn1ccnc1 ?
> 100 µM

Would you mind doing COc1ccc2nc(-c3ccc(O)cc3)sc2c1 as well?
47.5 µM

Would you mind doing CC(C)(c1ccccc1)c1ccc(OC#N)cc1 as well?
> 100 µM

Would you mind doing CCCCn1c2c(n(CCCC)c1=S)-c1c(n(CCCC)c(=S)n1CCCC)SSc1c(n(CCCC)c(=S)n1CCCC)-c1c(n(CCCC)c(=S)n1CCCC)SSc1c(n(CCCC)c(=S)n1CCCC)-c1c(n(CCCC)c(=S)n1CCCC)SS2 as well?
> 50 µM

Would you mind doing NC(=S)N/N=C\c1nccc2ccccc12 as well?
2.42 µM

Would you mind doing O=C1C(Cl)=C(Nc2ccc(S(=O)(=O)Nc3ccccn3)cc2)C(=O)c2ccccc21 as well?
15.4 µM

----------
Some compounds, each annotated with its measured TGI.
System: OVCAR-3 ovarian
Assay: NCI tumour cell line growth inhibition, 48 h

Sample answers from the record:
compound	tested.on	TGI
CN1C(=O)C2C(C1=O)C1(O)c3ccccc3C2(N)c2ccccc21 (centres undefined)	OVCAR-3 ovarian	> 100 µM
C=C(Br)CNC(=O)CCC(=O)NCC(=C)Br	OVCAR-3 ovarian	> 100 µM
COc1ccc(C(=O)/C=C/c2cc(O)c(O)c(F)c2F)c(OC)c1	OVCAR-3 ovarian	85.5 µM

Which TGI value is on record for CN(C)c1ccc(/C=C/c2cc[n+](C)c(/C=C/c3ccc(N(C)C)cc3)c2)cc1 ?
1.56 µM

Would you mind doing CC(=O)OCC1OC(n2c(-c3ccc(C)cc3)cc(-c3ccccc3)c(C#N)c2=O)C(OC(C)=O)C(OC(C)=O)C1OC(C)=O (centres undefined) as well?
> 100 µM

Would you mind doing Cc1cnc(C(=O)NNc2nc3sc4c(c3c(=O)n2C)C(C)CCC4)cn1 (centres undefined) as well?
1.8 µM

Would you mind doing CCOC(=O)C(SCCO)C(C(=O)OCC)n1ccc(=O)[nH]c1=O (centres undefined) as well?
72.7 µM

Would you mind doing Cn1cc2ccccc2c1-c1nc(F)nc(OCC(=O)[C@H]2CCC3[C@@H]4CCC5=CC(=O)CC[C@]5(C)C4[C@@H](O)C[C@@]32C)n1 (some centres undefined) as well?
33.2 µM

Would you mind doing C=C(c1ccccc1)[C@@]1(O)CC[C@@H]1N(CC#N)Cc1ccccc1 as well?
17.1 µM

Would you mind doing COc1ccccc1C(=O)c1c(NCc2ccccc2)c(=O)c1=O as well?
> 100 µM

----------
Some compounds, each annotated with its measured log10 of TGI.
Test system: LOX IMVI melanoma
Test: NCI tumour cell line growth inhibition, 48 h
Short version: log10 scale, TGI, µM.

Sample answers from the record:
compound	measured.result
O=C1Oc2cc(O)cc(/C=C/c3ccc(O)cc3)c2[C@@]12c1c(O)cc(O)cc1OC2c1cccc(O)c1 (stereo partly drawn)	1.88
Cc1cnc(C(=O)Nc2nc3ccc(S(=O)(=O)Nc4ccc(C5(C(F)(F)F)CC5)cc4)cc3[nH]2)cn1	0.75
CCCCn1c2c(n(CCCC)c1=S)-c1c(n(CCCC)c(=S)n1CCCC)SSc1c(n(CCCC)c(=S)n1CCCC)-c1c(n(CCCC)c(=S)n1CCCC)SSc1c(n(CCCC)c(=S)n1CCCC)-c1c(n(CCCC)c(=S)n1CCCC)SS2	1.12

Tell me reported log10 of TGI for C#CCOc1cccc(Nc2ncnc3cc(NC(=O)CCl)ccc23)c1 , tested with LOX IMVI melanoma.
0.43

Would you mind doing O=C1C[C@@H]2/C(=C(O)\C=C\c3ccccc3)C(=O)C=C[C@@H]2O1 as well?
-0.31

----------
Tested on: NCI/ADR-RES ovarian
Test: NCI tumour cell line growth inhibition, 48 h
Some molecules, each annotated with its measured GI50.

Sample answers from the record:
O=C(/C=C/c1ccc(C(F)(F)F)cc1)c1ccc(Nc2nc(NCCO)nc(Nc3ccc(Cl)cc3)n2)cc1 5.58 µM
C#CCOc1cccc(Nc2ncnc3cc(NC(=O)CCl)ccc23)c1 4.13 µM

Which GI50 value is on record for O=C1c2ccccc2-c2c1c1ccccc1c(=O)n2CCCn1ccnc1 ?
1.81 µM

Would you mind doing Cc1cnc(C(=O)Nc2nc3ccc(S(=O)(=O)Nc4ccc(C5(C(F)(F)F)CC5)cc4)cc3[nH]2)cn1 as well?
0.26 µM

Would you mind doing Cc1ccc(Cl)cc1NC(=O)c1sc2nc3c(cc2c1N)C(=O)CCC3 as well?
5.28 µM

----------
Some molecules, each annotated with its measured TGI.
System: LOX IMVI melanoma
Assay: NCI tumour cell line growth inhibition, 48 h

Sample answers from the record:
molecule	TGI
COc1ccc(C2ON(c3cccc(C)n3)CC=C2C)cc1 (stereo not given)	> 100 µM
COc1cc2c(cc1OC)/C(=C\c1ccccc1N)C(=O)OC2	4.18 µM
COC(=O)CC[C@H](Cc1ccccc1)NC(=O)c1csc([C@@H](C[C@H](C(C)C)N(C)C(=O)[C@@H](NC(=O)[C@H]2CCCCN2C)C(C)C)OC(C)=O)n1	> 25 µM
OCCNCNc1nc(NCNCCO)nc(N(CNCCO)CNCCO)n1	40.2 µM
CC(C)NC(=O)CN1CCN(c2c(O)c3c(c(O)c2Cl)C(=O)C=CC3=O)CC1	1.92 µM
CC(C)(C)c1cc(O)ccc1O	> 74.6 µM

Tell me reported TGI for COC(=O)C1(C)C=CC(=O)C2(C)C1C(O)C1OC3CC(c4ccoc4)C(C)=C3C1(C)C2CC(=O)O (stereo not given) , tested with LOX IMVI melanoma.
> 100 µM

Would you mind doing CC(C)OP(=O)(NC(=S)c1ccccc1)OC(C)C as well?
> 100 µM

Would you mind doing N#Cc1ccc(-n2c3ccccc3c3ccc4c(c32)C(=O)C=CC4=O)cc1 as well?
> 25.4 µM

Would you mind doing N#Cc1cccc(/C=N/N=C(\N)NO)c1 as well?
> 100 µM

Would you mind doing COc1ccc(OCC(=O)O)c(C(=O)CCC(=O)O)c1 as well?
> 100 µM

----------
Some molecules, each annotated with its measured TGI.
Test system: RXF 393 renal
Assay: NCI tumour cell line growth inhibition, 48 h
Supply the numeric figure in µM, leaving out any unit text.

Sample answers from the record:
molecule	TGI / µM
COc1ccc(C(=O)/C=C/c2cc(O)c(O)c(F)c2F)c(OC)c1	59.6
N#Cc1c(N)nc(Sc2ccccc2N)c(C#N)c1-c1ccc(Cl)cc1	49.9
CN(Cc1cc(C(C)(C)C)cc(Br)c1O)Cc1cc(C(C)(C)C)cc(Br)c1O	7.98
N[C@H]1CCCC[C@@H]1N1C(=O)c2ccccc2C1(O)c1ccc(Cl)cc1 (some centres undefined)	20.4

Next up:
Which TGI value is on record for O=[N+]([O-])c1ccc(N/N=C/c2ccc(OCCCCCCCCCCCO)cc2)c([N+](=O)[O-])c1 ?
4.6

----------
Some molecules, each annotated with its measured TGI.
Test system: HCC-2998 colon
Assay: NCI tumour cell line growth inhibition, 48 h

Sample answers from the record:
molecule	experimental.readout	measured.result
C=CC(Cl)(CBr)CCC(Br)C(C)(C)Cl (stereo not drawn)	TGI	28.8 µM
N#CC1CCCCCCCCCCC(=O)N(CCCl)C1=O (stereo not drawn)	TGI	> 100 µM
N[C@H]1CCCC[C@@H]1N1C(=O)c2ccccc2C1(O)c1ccc(Cl)cc1 (stereo partly drawn)	TGI	3.5 µM
N#C/C(N)=C(\C#N)NC(=O)C(=O)N/C(C#N)=C(\N)C#N	TGI	> 100 µM
Cc1ccc2c(c1)-c1nc(N)c(C#N)c(-c3ccccc3)c1CCS2(=O)=O	TGI	> 100 µM

Which TGI value is on record for O=C1C(Cl)=C(NCc2ccco2)C(=O)c2ccccc21 ?
50.8 µM

Would you mind doing Cc1cc(C)c(-n2c(-c3ccc(Br)cc3)cs/c2=N\N=C2C=C(C(C)(C)C)C(=O)C(C(C)(C)C)=C2)c(C)c1 as well?
> 100 µM

Would you mind doing COc1cc(C2CC(c3ccc(Nc4ccnc5cc(Cl)ccc45)cc3)=NN2c2ccc(Cl)cc2)cc(OC)c1OC (stereo not drawn) as well?
8.03 µM

Would you mind doing Cn1c(-c2cccc([N+](=O)[O-])c2)[n+](C)c2ccccc21 as well?
> 100 µM

Reference source: PubChem BioAssay (NCI)
